The following compounds are shown together with reported Emax values.
Target: human muscarinic M4 receptor (Homo sapiens, UniProt P08173)
Construct: expressed in transfected cells
Sequence (P08173 1-479): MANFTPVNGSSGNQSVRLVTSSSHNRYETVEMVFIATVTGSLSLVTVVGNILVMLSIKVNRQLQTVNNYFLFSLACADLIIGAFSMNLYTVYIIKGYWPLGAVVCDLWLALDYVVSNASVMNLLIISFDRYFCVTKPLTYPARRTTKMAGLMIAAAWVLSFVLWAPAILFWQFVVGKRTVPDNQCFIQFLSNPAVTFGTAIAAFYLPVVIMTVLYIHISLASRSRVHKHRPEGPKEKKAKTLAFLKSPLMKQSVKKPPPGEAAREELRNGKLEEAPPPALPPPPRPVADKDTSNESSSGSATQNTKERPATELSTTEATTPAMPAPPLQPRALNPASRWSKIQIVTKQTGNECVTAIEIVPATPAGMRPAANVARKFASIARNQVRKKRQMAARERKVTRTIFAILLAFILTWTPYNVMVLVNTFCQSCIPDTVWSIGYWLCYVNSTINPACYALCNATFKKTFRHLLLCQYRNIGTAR
Test: Alphascreen Surefire phospho-ERK1/2 functional assay, M4
Type: cell-based
Conditions: CHO, read-out: M4 % Emax cf. ACh, CHO cells stably expressing human M4; Emax relative to ACh
Give just the number in %; leave the unit off.

Summary for this compound, N#CC1(c2ccccc2)CCC(N2CC3(CC(c4nc(C(F)(F)F)no4)C3)C2)CC1 (single isomer, unassigned) [20-1 Isomer 2] : Emax is 58

Summary for this compound, Cc1noc(C2CC3(CCN(C4CCC(C#N)(c5ccccc5F)CC4)C3)C2)n1 (single isomer, unassigned) [21-2 Isomer 3] : Emax is 58

The reported numbers originate from patent US10759751B2.
